# SYSTEM NAME: chimeric DR-IE (human-mouse chimeric MHC class II molecule) (human; murine)
# ASSAY PROCEDURE: cell-based or functional assay
Can you tell me Maximum inhibition(%), IL-2 secretion of T-Hyb 1 cells; Fab for the items I'm about to list?
Give bare numbers, in %.

Go through the items and report each one's Maximum inhibition(%), IL-2 secretion of T-Hyb 1 cells; Fab.
1. MS-GPC-8-6-2 (Fab) (Fab, V domains shown) VH: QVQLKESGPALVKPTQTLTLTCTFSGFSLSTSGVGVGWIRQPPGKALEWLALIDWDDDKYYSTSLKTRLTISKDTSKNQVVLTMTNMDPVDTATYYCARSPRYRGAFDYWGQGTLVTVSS VL: DIVLTQPPSVSGAPGQRVTISCSGSESNIGSNYVHWYQQLPGTAPKLLIYDNNQRPSGVPDRFSGSKSGTSASLAITGLQSEDEADYYCQSYDYDHYVFGGGTKLTVLG
2. MS-GPC-8-6-27 (Fab) (Fab, V domains shown) VH: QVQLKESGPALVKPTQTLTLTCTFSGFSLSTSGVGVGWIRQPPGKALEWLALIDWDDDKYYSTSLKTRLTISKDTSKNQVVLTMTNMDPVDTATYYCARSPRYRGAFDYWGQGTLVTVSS VL: DIVLTQPPSVSGAPGQRVTISCSGSDSNIGANYVTWYQQLPGTAPKLLIYDNNQRPSGVPDRFSGSKSGTSASLAITGLQSEDEADYYCQSYDYDHYVFGGGTKLTVLG
3. MS-GPC-8-6-19 (Fab) (Fab, V domains shown) VH: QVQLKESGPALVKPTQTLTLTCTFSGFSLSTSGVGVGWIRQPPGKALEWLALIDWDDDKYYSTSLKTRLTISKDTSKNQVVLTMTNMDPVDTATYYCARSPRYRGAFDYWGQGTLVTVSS VL: DIVLTQPPSVSGAPGQRVTISCSGSESNIGSNYVAWYQQLPGTAPKLLIYDNNQRPSGVPDRFSGSKSGTSASLAITGLQSEDEADYYCQSYDYDHYVFGGGTKLTVLG

Result:
1. 100
2. 100
3. 100
